- Test Description: Plasma pharmacokinetics of flavopiridol and flavopiridol glucuronide in metastatic renal cancer patients (HPLC)
- Format: in vivo, human
- Test Settings: human, plasma, intravenous; 72 h-continuous infusion 50 mg/m2/day, first cycle, 71 h into the infusion; read-out: median plasma concentration (interquartile range) at 71 h
Measured Endpoint: concentration at 71 h (nM)
// note: answer is a bare numeric in nM

Enquiry: Field request: concentration at 71 h | item: CN1CC[C@H](c2c(O)cc(O)c3c(=O)cc(-c4ccccc4Cl)oc23)[C@H](O)C1
Return: 397

====

- Test Description: FLAVO glucuronidation assay, normal human liver microsomes
- Format: in vitro ADME
- Test Settings: pooled human liver microsomes, pH 7.4; pool of human liver microsomes, substrate 0.1 to 3 mM, Lineweaver-Burke
Measured Endpoint: Km at 3 h

Enquiry: Field request: Km at 3 h | item: CN1CC[C@H](c2c(O)cc(O)c3c(=O)cc(-c4ccccc4Cl)oc23)[C@H](O)C1
Return: 642 µM

====

- Test Description: Plasma pharmacokinetics of flavopiridol and flavopiridol glucuronide in metastatic renal cancer patients (HPLC)
- Assay type: in vivo, human
- Test Settings: human, plasma, intravenous; 72 h-continuous infusion 50 mg/m2/day, first cycle, 23 h into the infusion, 22 patients; read-out: median plasma concentration (interquartile range) at 23 h
Measured Endpoint: concentration at 23 h (nM)
// note: answer is a bare numeric in nM

Enquiry: Field request: concentration at 23 h | item: CN1CC[C@H](c2c(O)cc(O)c3c(=O)cc(-c4ccccc4Cl)oc23)[C@H](O)C1 [flavopiridol]
Return: 389
